Test system: alpha-L-Iduronidase W402X in Hurler patient derived fibroblast cells
Assay: Hurler patient derived fibroblast cell cultures, restored alpha-L-iduronidase activity (W402X readthrough)
Type: cell-based, human
Settings: Homo sapiens, Fibroblast, 192 h, 14 mM paromomycin = 100% control, 8 days incubation, highest concentration 20 uM, read-out: Amax
Text: Activity of compounds of the present invention was examined in patient derived fibroblast cells. […] This TAG stop codon triplet is permissive to aminoglycoside mediated translational readthrough which served as activity control for compound testing. Readthrough of W402X restores alpha-L-Iduronidase activity which results in removal of lysosomal accumulated Glycosaminoglycan's. […] Final DMSO concentration was below 0.5% and tested to be without effect on cell viability, growth and readthrough. […]
This section presents compounds with their documented Emax values.
A number alone suffices; assume %.

The following compounds have reported results that may help.
compound="CC1CCc2[nH]c3nc(C(C)C)n(-c4ccccc4)c(=O)c3c(=O)c2C1 (centres unmarked)" property_measured=Emax assay_result=12
compound=Cc1cc2c(=O)c3c(=O)n(-c4ccccc4)c(C4CCC4)nc3n(CCN)c2s1 property_measured=Emax assay_result=162

query: # get_value(readout= Emax, system= alpha-L-Iduronidase W402X in Hurler patient derived fibroblast cells) for Cc1cc2c(s1)c(=O)c1c(=O)n(-c3ccccc3)c(C3CCC3)nc1n2C
result: 138
